- testedTarget: Carbonic anhydrase 1 (Homo sapiens)
- Sequence (P00915 whole entry): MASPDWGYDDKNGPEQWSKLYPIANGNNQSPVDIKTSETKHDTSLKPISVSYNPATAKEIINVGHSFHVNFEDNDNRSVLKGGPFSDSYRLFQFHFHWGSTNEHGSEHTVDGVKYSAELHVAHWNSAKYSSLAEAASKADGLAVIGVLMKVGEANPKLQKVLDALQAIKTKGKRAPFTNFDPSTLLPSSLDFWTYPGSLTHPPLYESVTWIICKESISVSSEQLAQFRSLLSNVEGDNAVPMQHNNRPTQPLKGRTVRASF
readout: Ki (nM)
Numbers only here, please. The scale is nM.

NS(=O)(=O)c1ccc(CCNc2nc(Cl)nc(NC(Cc3ccc(O)c(O)c3)C(=O)O)n2)cc1 (racemic)	1550
CC(Nc1nc(NCc2ccc(S(N)(=O)=O)cc2)nc(NC(C)C(=O)O)n1)C(=O)O (racemic)	1660
CC(C)(C)[Si](C)(C)OCCOc1nc(Cl)nc(Nc2ccc(S(N)(=O)=O)cc2)n1	3470
COC(=O)CNc1nc(NCC(=O)OC)nc(NCc2ccc(S(N)(=O)=O)cc2)n1	607
NS(=O)(=O)c1ccc(Nc2nc(NCCC(=O)O)nc(NCCC(=O)O)n2)cc1	673

# input for lookup
Consider the molecule shown here: `COC(=O)CNc1nc(Cl)nc(Nc2ccc(S(N)(=O)=O)cc2)n1` What is its recorded Ki?
3080
